# pKd listing for each entry below
- assayed-system: T1, cynomolgous monkey CD25 (cynomolgous monkey)
- T1 construct: also called cmCD25; cm
- test-summary: SPR (BIAcore), cynomolgous CD25
Answer as the number alone; pKd is minus log10 of concentration in mol/L.

# annotated cases, reported pKd shown
Variant C63 (antibody, V domains shown) VH: QVQLVQSGAEVKKPGSSVKVSCKASGYTFTSYRMHWVRQAPGQGLEWMGYIKPNSGRTEYNQKFKDKATITADESTNTAYMELSSLRSEDTAVYYCARGGGVFDYWGQGTLVTVSS VL: DIQMTQSPSTLSASVGDRVTITCSASSKISYMHWYQQKPGKAPKLLIYTTSDLASGVPARFSGSGSGTEFTLTISSLQPDDFATYYCHQRSTYPLTFGQGTKVEVK: 10.20
Variant C44 (antibody, V domains shown) VH: QVQLVQSGAEVKKPGSSVKVSCKASGYTFTSYRMHWVRQAPGQGLEWMGYISPKKGYTEYNQKFKDKATITADESTNTAYMELSSLRSEDTAVYYCARGGGVFDYWGQGTLVTVSS VL: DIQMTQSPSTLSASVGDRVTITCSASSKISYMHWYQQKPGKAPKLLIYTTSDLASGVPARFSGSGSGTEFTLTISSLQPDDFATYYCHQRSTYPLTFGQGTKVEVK: 10.38

Now examine the next entry.
-- ask Look up pKd: Variant C57 (antibody, V domains shown) VH: QVQLVQSGAEVKKPGSSVKVSCKASGYTFTSYRMHWVRQAPGQGLEWMGYIKPKSGRTEYNQKFKDKATITADESTNTAYMELSSLRSEDTAVYYCARGGGVFDYWGQGTLVTVSS VL: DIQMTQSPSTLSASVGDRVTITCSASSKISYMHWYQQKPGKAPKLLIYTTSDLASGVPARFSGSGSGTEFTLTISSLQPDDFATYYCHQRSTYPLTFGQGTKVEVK
-- reply 10.11

Cited source for all entries: patent US20200308290A1
